NanoBRET Fold Response values, listed per item
# assay-system: DRD4 (Homo sapiens, UniProt P21917)
# Construct: purchased Promega (in-house HiBiT-GPCR construct library, NanoBRET)
# Sequence (P21917 whole entry): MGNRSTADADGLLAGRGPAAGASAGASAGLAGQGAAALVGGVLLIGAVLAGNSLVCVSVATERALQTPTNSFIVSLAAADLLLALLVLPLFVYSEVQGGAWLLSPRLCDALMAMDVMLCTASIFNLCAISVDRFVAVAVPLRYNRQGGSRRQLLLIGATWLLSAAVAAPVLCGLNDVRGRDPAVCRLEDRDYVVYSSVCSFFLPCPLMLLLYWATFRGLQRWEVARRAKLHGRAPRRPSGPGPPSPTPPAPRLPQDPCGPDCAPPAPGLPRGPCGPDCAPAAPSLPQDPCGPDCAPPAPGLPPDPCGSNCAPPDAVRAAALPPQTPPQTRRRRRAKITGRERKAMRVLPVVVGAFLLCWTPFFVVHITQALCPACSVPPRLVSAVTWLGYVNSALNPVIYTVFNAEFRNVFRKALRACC
# protocol-text: NanoBRET screen HiBiT-DRD4 in HEK293
# Type: binding
# applied-conditions: DRD4; tracer 0.1μM
metric-name: NanoBRET Fold Response

compound	endpoint-result
COc1ccccc1N1CCN(CCCCN2C(=O)c3ccc(CNC(=O)CCOCCOCCOCCOCCNC(=O)CCc4ccc5n4[B-](F)(F)[N+]4=C(c6ccc[nH]6)C=CC4=C5)cc3C2=O)CC1 [NAN-190-2-NB590]	1.09
CCCn1c(=O)c2[nH]c(-c3ccc(OCC(=O)NCCNC(=O)CCOCCNC(=O)c4ccc(CNC(=O)CCc5ccc6n5[B-](F)(F)[N+]5=C(c7ccc[nH]7)C=CC5=C6)cc4)cc3)nc2n(CCC)c1=O [XAC-3-NB590]	1.27
O=C(CCc1ccc2n1[B-](F)(F)[N+]1=C(c3ccc[nH]3)C=CC1=C2)NCc1ccc(C(=O)NCCOCCC(=O)N[C@@H]2CC[C@@]3(O)[C@H]4Cc5ccc(O)c6c5[C@@]3(CCN4CC3CC3)[C@H]2O6)cc1 [Naltrexone-3-NB590]	0.82
Cc1cc2c(s1)Nc1ccccc1N=C2N1CCN(CCCNC(=O)CCOCCOCCOCCOCCNC(=O)CCc2ccc3n2[B-](F)(F)[N+]2=C(c4ccc[nH]4)C=CC2=C3)CC1 [Olanzapine-a-2-NB590]	1.68
O=C(CCOCCOCCOCCOCCNC(=O)CCc1ccc2n1[B-](F)(F)[N+]1=C(c3ccc[nH]3)C=CC1=C2)NCCCN1CCN(C2=Nc3ccccc3Oc3ccc(Cl)cc32)CC1 [Loxapine-a-2-NB590]	1.57
CC(C)N(CC[C@H](c1ccccc1)c1cc(CCNC(=O)CCOCCOCCOCCOCCNC(=O)CCc2ccc3n2[B-](F)(F)[N+]2=C(c4ccc[nH]4)C=CC2=C3)ccc1O)C(C)C [Tolterodine-2-NB590]	0.99

---

# assay-system: GABBR2 (Homo sapiens)
# Construct: purchased Promega (in-house HiBiT-GPCR construct library, NanoBRET)
# Sequence (O75899 42-941): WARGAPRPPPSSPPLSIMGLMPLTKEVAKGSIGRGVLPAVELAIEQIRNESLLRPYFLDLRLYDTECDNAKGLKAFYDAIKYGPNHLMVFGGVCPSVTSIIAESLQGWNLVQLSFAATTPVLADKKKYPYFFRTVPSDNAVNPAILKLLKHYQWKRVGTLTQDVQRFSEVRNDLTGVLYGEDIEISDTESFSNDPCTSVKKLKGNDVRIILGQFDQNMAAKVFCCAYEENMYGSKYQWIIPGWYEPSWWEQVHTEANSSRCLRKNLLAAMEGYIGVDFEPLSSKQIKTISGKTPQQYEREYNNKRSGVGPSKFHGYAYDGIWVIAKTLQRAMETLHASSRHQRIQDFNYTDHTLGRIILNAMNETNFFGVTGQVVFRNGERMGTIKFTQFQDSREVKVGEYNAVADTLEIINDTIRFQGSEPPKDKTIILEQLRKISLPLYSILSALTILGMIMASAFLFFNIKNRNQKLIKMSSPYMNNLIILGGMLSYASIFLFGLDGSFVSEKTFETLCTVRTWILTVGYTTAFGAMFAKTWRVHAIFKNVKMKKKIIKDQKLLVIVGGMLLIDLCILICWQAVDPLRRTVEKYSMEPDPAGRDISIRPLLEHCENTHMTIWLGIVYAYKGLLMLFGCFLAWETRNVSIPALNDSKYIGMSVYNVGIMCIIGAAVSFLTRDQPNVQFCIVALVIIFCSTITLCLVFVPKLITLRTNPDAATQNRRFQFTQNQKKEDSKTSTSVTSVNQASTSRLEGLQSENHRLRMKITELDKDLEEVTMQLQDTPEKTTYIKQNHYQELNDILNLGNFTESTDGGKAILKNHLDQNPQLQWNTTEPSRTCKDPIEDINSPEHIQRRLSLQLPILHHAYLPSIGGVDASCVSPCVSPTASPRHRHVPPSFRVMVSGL
# protocol-text: NanoBRET screen HiBiT-GABBR2 in HEK293
# Format: binding
# applied-conditions: GABBR2; tracer 1μM

compound	NanoBRET Fold Response
O=C(CCOCCOCCOCCOCCNC(=O)CCc1ccc2n1[B-](F)(F)[N+]1=C(c3ccc[nH]3)C=CC1=C2)NCCCN1CCN(C2=Nc3ccccc3Oc3ccc(Cl)cc32)CC1 [Loxapine-a-2-NB590]	0.85
Cc1cc2c(s1)Nc1ccccc1N=C2N1CCN(CCCNC(=O)CCOCCOCCOCCOCCNC(=O)CCc2ccc3n2[B-](F)(F)[N+]2=C(c4ccc[nH]4)C=CC2=C3)CC1 [Olanzapine-a-2-NB590]	0.82
O=C(CCc1ccc2n1[B-](F)(F)[N+]1=C(c3ccc[nH]3)C=CC1=C2)NCCOCCOCCNC(=O)OCCOCCN1CCN(C2=Nc3ccccc3Sc3ccccc32)CC1 [Quetiapine-a-2-NB590]	0.91
N#CN=C(NCCCOc1cccc(CN2CCCCC2)c1)NCCNC(=O)CCOCCOCCOCCOCCNC(=O)CCc1ccc2n1[B-](F)(F)[N+]1=C(c3ccc[nH]3)C=CC1=C2 [Aminopotentidine-2-NB590]	0.94
CC(C)N(CC[C@H](c1ccccc1)c1cc(CCNC(=O)CCOCCOCCOCCOCCNC(=O)CCc2ccc3n2[B-](F)(F)[N+]2=C(c4ccc[nH]4)C=CC2=C3)ccc1O)C(C)C [Tolterodine-2-NB590]	1.02
